# maps each entry to its GM (geometric mean of MICs), G+ Bacteria
System: G+ Bacteria
PROTOCOL SUMMARY: Geometric mean of MICs and TI value
Type: cell-based
RUN CONDITIONS: geometric mean of MICs against tested Gram-positive bacteria
Bridge positions count the residues as written; N and C are the ends. Ends that are not written are not given here.
Enter your answer as a number in µM; do not include the unit.

Recorded results for 4 substances are shown here.
# SUBSTANCE, ASSAYED TARGET, OBSERVED VALUE
data = [
    ("H-GLLSGVLGAGKKIVGLSGR-OH [Peptide 1782-R]", "G+ Bacteria", 256.00),
    ("GLLRGVLGAGKKIVCGLSGRC (disulfide 15-21 (inferred)) [Peptide 2057-C, N-terminus modified analogue of Nigrosin-6VL]", "G+ Bacteria", 128.00),
    ("GLLSGVLGAGKKIVAGLSGRA [Peptide 1924-A]", "G+ Bacteria", 203.19),
    ("GLLSGVLGAGKKIVCGLSGR- [Peptide 1885-R, Rana Box modified analogue of Nigrosin-6VL]", "G+ Bacteria", 128.00),
]

Pending substance:
Fill in: GM (geometric mean of MICs), G+ Bacteria of GLLSGVLGAGKKIVGLSGRC [Peptide 1885-C] is ___ 256.00

---

# maps each entry to its MIC
Tested on: E. coli (ATCC 8739)
PROTOCOL SUMMARY: microbe, parasite or virus in culture
Format: cell-based, Escherichia coli
RUN CONDITIONS: planktonic E. coli ATCC 8739; 37 °C; nine repeats of three independent experiments; read-out: MIC
Bridge positions count the residues as written; N and C are the ends. Ends that are not written are not given here.
Enter your answer as a number in µM; do not include the unit.

# SUBSTANCE, MIC / µM
records = [
    ("GLLSGVLGAGKKIVGLSGRC [Peptide 1885-C]", 16),
    ("GLLSGVLGAGKKIVAGLSGRA [Peptide 1924-A]", 64),
    ("GLLSGVLGAGKKIVCGLSGR- [Peptide 1885-R, Rana Box modified analogue of Nigrosin-6VL]", 32),
]

Fill in: MIC of GLLRGVLGAGKKIVCGLSGRC (disulfide 15-21 (inferred)) [Peptide 2057-C, N-terminus modified analogue of Nigrosin-6VL] is ___ 16

---

Test system: MRSA (NCTC 12493)
PROTOCOL SUMMARY: microbe, parasite or virus in culture
Type: cell-based, methicillin-resistant Staphylococcus aureus
RUN CONDITIONS: planktonic MRSA NCTC 12493; 37 °C; nine repeats of three independent experiments
Ends that are not written are not given here.
# maps each entry to its MIC

Report MIC for GLLSGVLGAGKKIVCGLSGR- [Peptide 1885-R, Rana Box modified analogue of Nigrosin-6VL] tested on MRSA (NCTC 12493). 64 µM

Report MIC for GLLSGVLGAGKKIVGLSGRC [Peptide 1885-C] tested on MRSA (NCTC 12493). > 128 µM

Report MIC for H-GLLSGVLGAGKKIVGLSGR-OH [Peptide 1782-R] tested on MRSA (NCTC 12493). > 128 µM

Report MIC for GLLSGVLGAGKKIVAGLSGRA [Peptide 1924-A] tested on MRSA (NCTC 12493). > 128 µM

These measurements were taken from paper PMC11274128.
